# assayedSystem: T1, TROP2 (UniProt P09758 27-323, limits assumed)
# T1 sequence (looked up): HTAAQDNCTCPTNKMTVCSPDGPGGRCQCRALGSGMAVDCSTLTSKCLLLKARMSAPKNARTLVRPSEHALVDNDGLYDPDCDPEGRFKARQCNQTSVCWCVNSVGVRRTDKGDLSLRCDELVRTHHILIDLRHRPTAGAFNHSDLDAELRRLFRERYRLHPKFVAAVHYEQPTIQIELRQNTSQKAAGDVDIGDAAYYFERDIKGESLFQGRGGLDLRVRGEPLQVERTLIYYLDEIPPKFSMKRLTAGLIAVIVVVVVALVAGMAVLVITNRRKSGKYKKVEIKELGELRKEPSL
# experimentalDetails: cell-based or functional assay
measureName: TROP2+ 293T EC50

Query isotype mAb Libivirumab (anti HBsAg mAb) conjugated with Compound 3.13 (antibody, human IgG1, kappa, V domains shown) VH: QVQLVESGGGVVRPGRSLRLSCAASGFAFSDYSINWVRQAPGKGLEWVAIISYDGRITYYRDSVKGRFTISRDDSKNTLYLQMNSLRTEDTAVYYCARQYYDFWSGSSVGRNYDGMDVWGLGTTVTVSS VL: DIVMTQSPLSLSVTPGEPASISCRSSQSLLHRSGNNYLDWYLQKPGHSPQLLIYVGSNRASGVPDRFSGSGSGTEYTLKISRVEAEDVGVYYCMQALQTPRTFGQGTKLEIKR yields TROP2+ 293T EC50 of > 1000 nM

Query anti-TROP2 mAb5 (Sacituzumab, heavy chain S375C, light chain V110C) conjugated with Compound 3.16 (antibody, human IgG1, V domains shown, Compound 3.16 on engineered C110 (EU numbering); Compound 3.16 on engineered C375 (EU numbering); DAR 3.3 for the whole antibody) VH: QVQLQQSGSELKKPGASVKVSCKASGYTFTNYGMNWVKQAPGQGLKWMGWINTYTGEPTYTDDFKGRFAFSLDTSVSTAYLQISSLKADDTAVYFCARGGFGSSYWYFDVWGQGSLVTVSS VL: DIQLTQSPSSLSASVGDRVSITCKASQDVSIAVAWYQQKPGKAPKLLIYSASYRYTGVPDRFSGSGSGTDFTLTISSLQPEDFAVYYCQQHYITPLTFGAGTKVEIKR yields TROP2+ 293T EC50 of 4 nM
